Where these numbers come from: patent US6596722B2

Target: 3H-5-HT uptake into whole rat brain synaptosomes (serotonin reuptake) (Rattus norvegicus, UniProt P31652)
Construct: from tissue; host or cells: whole rat brain synaptosomes
Sequence (P31652 whole entry): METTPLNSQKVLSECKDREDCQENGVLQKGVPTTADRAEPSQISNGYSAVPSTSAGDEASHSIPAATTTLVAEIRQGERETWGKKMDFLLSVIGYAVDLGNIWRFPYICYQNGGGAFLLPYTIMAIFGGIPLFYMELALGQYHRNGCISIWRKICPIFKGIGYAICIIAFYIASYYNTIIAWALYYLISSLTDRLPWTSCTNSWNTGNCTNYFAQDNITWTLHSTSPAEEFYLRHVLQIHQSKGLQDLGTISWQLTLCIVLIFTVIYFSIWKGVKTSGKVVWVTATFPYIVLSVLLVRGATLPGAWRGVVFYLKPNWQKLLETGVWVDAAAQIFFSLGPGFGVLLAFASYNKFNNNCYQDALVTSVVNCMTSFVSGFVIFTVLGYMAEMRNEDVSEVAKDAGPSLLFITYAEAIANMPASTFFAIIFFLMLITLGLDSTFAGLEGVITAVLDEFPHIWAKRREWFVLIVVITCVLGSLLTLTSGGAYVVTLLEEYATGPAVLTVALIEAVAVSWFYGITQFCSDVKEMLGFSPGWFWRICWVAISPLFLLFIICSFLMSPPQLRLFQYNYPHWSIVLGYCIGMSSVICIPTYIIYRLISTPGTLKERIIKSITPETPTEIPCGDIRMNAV
Test: Inhibition of 3H-5-HT uptake into rat brain synaptosomes
Type: biochemical
Listed here are compounds together with their documented IC50.
Response body: numeric value in nM, unit text excluded.

structure notation | IC50 (nM)
Fc1ccc2occ(CCN3CC=C(c4cccc5ccoc45)CC3)c2c1 | 43

# ---- query compound ----
Please look at this compound and report its IC50: `c1cc2c(c(N3CCN(CCc4coc5ccccc45)CC3)c1)OCCO2`
12

###

Target: human 5-HT1A receptors (Homo sapiens, UniProt P08908)
Construct: expressed in transfected cells; host or cells: HeLa cells (HA7)
Assay: Inhibition of 3H-5-CT binding to human 5-HT1A receptors
Listed here are compounds together with their documented IC50.
Response body: numeric value in nM, unit text excluded.

Recorded results for 2 compounds are shown here.
structure notation | value measured
Clc1ccc2occ(CCN3CC=C(c4cccc5c4OCC5)CC3)c2c1 | 24
c1cc2c(c(N3CCN(CCc4coc5ccccc45)CC3)c1)OCCO2 | 8.3

Please look at this compound and report its IC50: `Fc1ccc2occ(CCN3CC=C(c4cccc5ccoc45)CC3)c2c1`
11

###

Structures can show the parent of a compound that is named as a salt.
readout type: melting point

Recorded results for 4 compounds are shown here.
compound | melting point
Cc1ccc2c(CCN3CCN(c4cccc5c4OCCO5)CC3)coc2c1 (as salt: oxalate) [Compound 3e] | 174 to 176 °C
Fc1ccc2occ(CCN3CC=C(c4cccc5ccoc45)CC3)c2c1 (as salt: oxalate) [Compound 3h] | 201 to 211 °C
c1cc2c(c(N3CCN(CCc4coc5ccccc45)CC3)c1)OCCO2 (as salt: oxalate) [Compound 3f] | 206 to 208 °C
Clc1ccc2occ(CCN3CCN(c4cccc5c4OCCO5)CC3)c2c1 (as salt: oxalate) [Compound 3d] | 206 to 208 °C

# ---- query compound ----
Please look at this compound and report its melting point: C(=CC1CCc2ccccc21)CCN1CCN(c2cccc3c2OCCO3)CC1 (centres unmarked) (as salt: oxalate) [Compound 1b]
154 to 157 °C

###

Listed here are compounds together with their documented log10 of IC50.
Target: human 5-HT1A receptors (Homo sapiens)
Construct: expressed in transfected cells; host or cells: HeLa cells (HA7)
Sequence (P08908 1-422): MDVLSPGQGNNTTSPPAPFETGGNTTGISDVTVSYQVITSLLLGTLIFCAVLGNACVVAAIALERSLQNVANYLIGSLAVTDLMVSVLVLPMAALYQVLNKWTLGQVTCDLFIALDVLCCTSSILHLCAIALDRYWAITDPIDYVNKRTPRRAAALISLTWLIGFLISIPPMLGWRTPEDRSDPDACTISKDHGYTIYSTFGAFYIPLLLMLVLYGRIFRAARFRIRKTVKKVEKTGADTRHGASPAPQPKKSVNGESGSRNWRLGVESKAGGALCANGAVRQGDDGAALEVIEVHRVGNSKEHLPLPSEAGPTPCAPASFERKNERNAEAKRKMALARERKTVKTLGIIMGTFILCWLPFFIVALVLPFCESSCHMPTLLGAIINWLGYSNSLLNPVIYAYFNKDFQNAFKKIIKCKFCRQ
Experiment: Inhibition of 3H-5-CT binding to human 5-HT1A receptors
Conditions: cloned human 5-HT1A receptors in HeLa cells (HA7) homogenate, 15 minutes at 37° C., pH 7.7
Values are log10 of IC50 in nM.

Recorded results for 3 compounds are shown here.
compound | log10 of IC50
c1ccc2c(c1)CCC2CCCCN1CCN(c2cccc3c2OCCO3)CC1 (stereo not drawn) | 0.40
Fc1ccc2c(CCCN3CCN(c4cccc5c4OCCO5)CC3)noc2c1 | 0.88
Fc1ccc2occ(CCN3CCN(c4cccc5c4OCCO5)CC3)c2c1 | 1.15

Fill: log10 of IC50 (human 5-HT1A receptors (Homo sapiens)) for this compound C(=CC1CCc2ccccc21)CCN1CCN(c2cccc3c2OCCO3)CC1 (stereo not drawn)
0.79

Fill: log10 of IC50 (human 5-HT1A receptors (Homo sapiens)) for this compound `Clc1cccc2c(CCN3CCN(c4cccc5c4OCCO5)CC3)coc12`
0.32

Fill: log10 of IC50 (human 5-HT1A receptors (Homo sapiens)) for this compound `Fc1ccc2occ(CCN3CCN(c4cccc5ccoc45)CC3)c2c1`
1.46
